Test system: Wolbachia pipientis
measurement-description: Anti-Wolbachia Cell-Based Screen
Format: functional
Design: scale not given: in the data most compounds retested in dose-response had high values
condition-parameters: 5 µM
Hit rate of the full screen: of about 48,000 compounds, about 13,000 (27%) showed an effect of 50% or more. The list shows a part of the results.
Decision: Percent Effect beneath 10% gives Yes; Percent Effect meeting or exceeding 10% gives No.

For this molecule, is Percent Effect lower than 10%? Cc1cc(C)c(CNC(=O)N(C)CC2CCCCO2)c(=O)[nH]1 (stereo unspecified) Yes

Dear reviewer, please state whether Cc1cc(C)c(CNC(=O)N2CCCC2c2cccn2C)c(=O)[nH]1 (stereo unspecified) has Percent Effect strictly beneath 10%. Yes

Percent Effect under 10%? Item: Cc1cc(CN2CCCC(CNC(=O)Cn3cccn3)C2)oc1C (stereo unspecified) Yes

Does the reported Percent Effect of the following molecule sit strictly below 10%? CC(C)c1nccn1C1CCCN(C(=O)c2ccc3c(c2)COC3)C1 (stereo unspecified) Yes

API: query returns whether the molecule falls strictly under 10% in Percent Effect. Query: COc1ccc2c(c1)nc1n2[C@@H](CNC(=O)c2cccnc2)COC1 Yes

Lab log: compare recorded Percent Effect with 10%; is it strictly lower for COCCN1CCO[C@@H]2CN(Cc3sccc3C)C[C@@H]2C1.O=C(O)C(F)(F)F.O=C(O)C(F)(F)F ? Yes

Is it true that Percent Effect reported for O=C(O)C(F)(F)F.O=C(c1ccsc1)N1CCO[C@@H]2CN(Cc3ccco3)CC[C@@H]2C1 is less than 10%? No

Please check: Percent Effect for CC(C)n1ccnc1C1CCCN(c2cc(C(=O)NC3CC3)ccn2)C1 (stereo unspecified) , strictly under 10% or not? No

Problem: For the molecule Cc1cc(C)c(CNC(=O)N2CCCC2c2ccccc2)c(=O)[nH]1 (stereo unspecified) , is Percent Effect under 10%? No

Strictly below 10%: is that where Percent Effect of Cc1cc(CN2C[C@@H]3CN(C(=O)c4cccn4C)CCO[C@@H]3C2)no1.O=C(O)C(F)(F)F sits? Yes

Here's an entry: O=C(c1ccc2nncn2c1)N1CCCC(n2ccnc2)C1 (stereo unspecified) . Is its Percent Effect below 10%? No

In the record for Cc1nccn1C1CCCN(C(=O)c2ccc3nncn3c2)C1 (stereo unspecified) , is Percent Effect less than 10%? No

Determine whether this molecule shows Percent Effect lower than 10% (ties excluded): CC(=O)Nc1ccc2c(c1)C1(CCOCC1)C(=O)N2c1ccsc1 Yes

Regarding Cn1cccc1C(=O)N1CCO[C@@H]2CN(Cc3nccs3)C[C@@H]2C1.O=C(O)C(F)(F)F , kindly confirm whether its Percent Effect is beneath 10%. No

Determine if Cc1ccc(OC2(C(=O)O)CCN(C(=O)c3ccoc3C)CC2)cn1 shows Percent Effect strictly lower than 10%. Yes

Does the reported Percent Effect of Cc1nccnc1N1CC[C@@H](NC(=O)c2cnccn2)[C@H](O)C1 stay below 10%? Yes

Consider the molecule Cn1cc(S(=O)(=O)N2CCCC2Cn2ccnc2)cc1C(N)=O (stereo unspecified) . Is its Percent Effect strictly less than 10%? Yes

Here's an entry: CC(C)c1nccn1C1CCCN(C(=O)c2ccn(C)c(=O)c2)C1 (stereo unspecified) . Is its Percent Effect below 10%? Yes

Does CC(C)c1nccn1C1CCCN(C(=O)c2ccc3nncn3c2)C1 (stereo unspecified) have Percent Effect strictly under 10%? No

Below 10% on Percent Effect? Entry Cc1nn(C)cc1S(=O)(=O)N[C@@H]1CC[C@@H](n2ccnc2C)[C@@H]1O No

Strictly below 10%: is that where Percent Effect of CN(C)C(=O)COC1COC2(CCN(c3cnccn3)CC2)C1.O=C(O)C(F)(F)F (stereo unspecified) sits? Yes

---

Would you kindly list Percent Effect for each of these compounds?
Tested on: Wolbachia pipientis
measurement-description: Anti-Wolbachia Cell-Based Screen
Assay type: functional
Parameters: scale not given: in the data most compounds retested in dose-response had high values
condition-parameters: 5 µM
Among all 48,000 compounds or so, about 13,000 (27%) showed an effect of 50% or more. The list shows a part of the results.
The reply should be a number in %, with the unit left off.

The reported Percent Effect of the compound Cc1ccccc1C(O)CNC(=O)Cc1ccc(F)cc1 (centres undefined) was -16.74

For reference, reported Percent Effect for O=S(=O)(C1CC1)N1CCO[C@H]2[C@H](OCC3CC3)CC[C@@H]21 stands at 103.2

Value of measured Percent Effect for the entry CN(C)CC(=O)N1C[C@@H]2CC[C@H](Oc3ccccc3Cl)[C@@H]2C1 : -7.066

Form: compound = Cn1ccnc1CN(CCCO)CC(F)(F)F ; Percent Effect = -6.784

Notebook: COc1cccc(-n2nnc(C(=O)N3CCN(C)CC3C)c2C)c1 (centres undefined) , Percent Effect read as 13.25

Entry CN(C)C(=O)N1CCc2c(nnn2C)C1COCc1ccccc1 (centres undefined) , Percent Effect reported as -4.916

Short answer for CNCCNc1ccc(-c2nc(-c3cccc(OC)c3OC)no2)cn1 : Percent Effect was -9.505

So for Cc1nc(CN(C)C2CCN(Cc3nnc(C4CC4)o3)C2)no1 (centres undefined) , the logged Percent Effect turned out to be 115.8

The compound identified as O=C(Cn1ccnc1)N1C[C@@H]2CC[C@H](Oc3ccc(Cl)cc3)[C@@H]2C1 registered its Percent Effect at 109.7

Lookup result for O=C(C1CCCOC1)N(CC(F)F)c1cccc(Cl)c1 (centres undefined) ; measured Percent Effect: -10.1

Just so you know, measured Percent Effect for CC(C)c1nc(CN2CCCN(Cc3nnc(C4CC4)o3)CC2)no1 came out at 0.1522

// field: Percent Effect; key: CC(=O)NCC(=O)N1C[C@@H]2CC[C@H](Oc3ccccc3Cl)[C@@H]2C1 ; value = 95.47

Percent Effect in this record for O=S(=O)(C1CC1)N1CCO[C@H]2[C@H](OCC3CCCC3)CC[C@@H]21 : -8.752

Note to self: Percent Effect recorded for COCC1c2nnn(CC3CC3)c2CCN1C(=O)c1sccc1C (centres undefined) was 4.054

Recorded Percent Effect (compound Cn1cnc(S(=O)(=O)N2CCO[C@H]3[C@H](OCC4CC4)CC[C@@H]32)c1 ): -0.8778

So for Cc1noc(C)c1CN1CCC2(CC1)NC(=O)CC2c1cnn(C)c1 (centres undefined) , the logged Percent Effect turned out to be 100

Per the record, CC(C)CC(=O)N1CCN(c2cc(N(C)C)cnn2)CC1 has Percent Effect of 10.83

The reported Percent Effect of the compound Cc1noc(C)c1CN1CCC2(CC1)NC(=O)CC2c1ccccc1.O=C(O)C(F)(F)F (centres undefined) was 92.37

GET /value?item= CO[C@@H]1CC[C@H]2[C@H]1OCCN2S(=O)(=O)C1CC1 &field=Percent Effect returns 111.8

Measured Percent Effect of CCn1cc(NC(=O)NCCc2ccc3c(c2)OCO3)cn1 : 124.8

Note to self: Percent Effect recorded for COCC(=O)N1CCc2c(nnn2C)C1COCCN1CCCC1.O=C(O)C(F)(F)F (centres undefined) was -0.9958

Entry CCCc1noc(CN2CCC(N(C)Cc3nnc(C4CC4)o3)C2)n1 (centres undefined) , Percent Effect reported as 109.8

Lab book: Percent Effect of CC(C)CO[C@@H]1CC[C@H]2[C@H]1OCCN2S(=O)(=O)C1CC1 noted as 103.9

For O=C(Cn1ccnc1)N1C[C@@H]2CC[C@H](Oc3ccccc3F)[C@@H]2C1 the compound record lists Percent Effect as 91.22

Percent Effect reading for O=C(NC1CCS(=O)(=O)c2ccccc21)c1cccs1 (centres undefined) : 3.993

Item: CC1CCN(C)c2ccccc2N1C(=O)c1ccc(=O)n(C)n1 (centres undefined) | Percent Effect: -12.65

Quick note, Percent Effect for CSCc1noc(CN2CC3(CCCC3)CC2=O)n1 landed at -12.65

Data point: Cc1cc(C(=O)N2CCn3cnc(COCC4CC4)c3C2)no1 ; Percent Effect = -11.47

Notebook: CCS(=O)(=O)N1CCO[C@H]2[C@H](OCC3CCCC3)CC[C@@H]21 , Percent Effect read as -19.91

Consider CCC(CNC(=O)Cn1ccnc1)Oc1cccc(F)c1 (centres undefined) . Its measured Percent Effect is 0.7752

CN1C(=O)CC(c2cnn(C)c2)C12CCN(C(=O)c1ccc[nH]1)CC2 (centres undefined) has a reported Percent Effect of -12.5

Lab book: Percent Effect of CC(C)c1nc(CN(C)C2CCN(Cc3nnc(C4CC4)o3)C2)no1 (centres undefined) noted as 123.9

For CCS(=O)(=O)CCNC(=O)NCc1ccccc1-n1cccn1 the compound record lists Percent Effect as -14.43

Consider CC(NC(=O)NCc1cccc(N2CCCC2=O)c1)c1ccccc1 (centres undefined) . Its measured Percent Effect is 10.19

Briefly, Percent Effect measured for Cc1ccc(S(=O)(=O)NC(=O)c2cc(S(C)(=O)=O)ccc2C)s1 : 12.42

// sample Cc1nc(CN2CCCC(N(C)Cc3nc(C)c(C)o3)C2)no1 (centres undefined) , its Percent Effect was -3.907

Entry under test: CCc1nc(CN(C)C2CCN(Cc3cnc(C)cn3)C2)no1 (centres undefined) . Its Percent Effect was 5.773

Memo: CCCc1n[nH]c(C2CN(Cc3nnc(C4CC4)o3)CCO2)n1 (centres undefined) , reported Percent Effect: -2.84

Input CCO[C@@H]1CC[C@H]2[C@H]1OCCN2S(=O)(=O)C1CC1 . Output Percent Effect: 110.7

The reported Percent Effect of the compound CCC(CO)N(Cc1ccccn1)C(=O)c1ncccc1C (centres undefined) was -0.3576

Consider CN(Cc1nnc(C2CC2)o1)C1CCN(CCCc2cnn(C)c2)C1 (centres undefined) . Its measured Percent Effect is 3.532

For Cc1ccc(C(CNCc2cccnc2)N2CCOCC2)s1 (centres undefined) the compound record lists Percent Effect as 5.338

Percent Effect in this record for O=C(c1cnco1)N1C[C@@H]2CC[C@H](Oc3ccccc3F)[C@@H]2C1 : -11.33

What the record says about CC(C)N1CC(C(=O)N2CCC(Oc3ccccc3Cl)CC2)CC1=O (centres undefined) : Percent Effect is -11.86
